Taken from paper PMC4336329.

- experimental-target: human ether-à-go-go-related gene (hERG) potassium channel (human);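 also: peak tail current of the secondary pulse compared with the same well before compound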
- procedure-details: primary screen, population patch clamp on CHO cells stably expressing hERG; higher = less effect of the substance
Among all 310,000 compounds or so, about 14,000 (4.5%) showed an effect of 50% or more. Effects have a minus sign here. The full list was thinned out, with strong results kept by preference.
parameter-measured: hERG current change (%, negative = inhibition) at 10uM (%)

compound: COC(=O)C1C(=O)N2CCCSC2=C(C#N)C1c1cccs1 (centres unmarked)
obs-value: 1.49
//
compound: Br.COc1cccc(C(=O)Cn2c(=N)n(C)c3ccccc32)c1
obs-value: -27.2
//
compound: Cn1c(O)c(C=Nc2ccccc2Sc2ccccc2)c(=O)n(C)c1=O
obs-value: 16.4
//
compound: Cn1c(CCN2CCN(c3ccccn3)CC2)nc2cc(NS(=O)(=O)c3ccc(Cl)cc3)ccc21
obs-value: -84.3
//
compound: C[C@H](NC(=O)[C@@H]1Cc2ccccc2CN1)C(=O)Nc1ccc2c(c1)OCCO2
obs-value: 3.18
//
compound: COc1ccc2oc(=O)cc(CN3CCN(Cc4ccc(OC)c(OC)c4OC)CC3)c2c1
obs-value: -39.7
//
compound: Cn1cc(Br)c(C(=O)NNC(=O)Cc2ccc(Cl)cc2)n1
obs-value: 3.6
//
compound: COc1ccc(OCCCCN(C)Cc2ccccc2)cc1.O=C(O)C(=O)O
obs-value: -45.7
//
compound: CC(C)C(=O)Nc1ccc2c(c1)nc(CCN1CCN(c3ccccn3)CC1)n2C
obs-value: -18.2
//
compound: Br.O=C(CN1CCCCC1)c1cccc(Br)c1
obs-value: 7.58
//
compound: CC(=O)Nc1ccc2c(c1)nc(CCN1CCN(c3ccccn3)CC1)n2C
obs-value: 18.6
//
compound: Br.O=C(CN1C2=NCCCN2c2ccccc21)c1ccc([N+](=O)[O-])cc1
obs-value: -75.1
//
compound: COc1ccc(C(=O)CN2C3=NCCCN3c3ccccc32)cc1OC
obs-value: -36.5
//
compound: Cc1c(NC(=O)COC(=O)C2CC3C=CC2C3)c(=O)n(-c2ccccc2)n1C (centres unmarked)
obs-value: 13.2
//
compound: CN(C(=O)CC1C(=O)NCCN1Cc1c(F)cccc1Cl)C1CCOCC1 (centres unmarked)
obs-value: 17.9
//
compound: Cc1ccc2c(CN3CCN(Cc4ccccc4)CC3)cc(=O)oc2c1
obs-value: -78.9
//
compound: Br.O=C(CN1C2=NCCCN2c2ccccc21)c1cccc(Br)c1
obs-value: -71
//
compound: Cc1ccc2c(CN3CCOCC3)cc(=O)oc2c1
obs-value: -27.6
//
compound: CCN1CCN(Cc2cc(=O)oc3ccc(C)cc23)CC1
obs-value: -3.04
//
compound: CSCC[C@H](NC(=O)[C@@H]1Cc2ccccc2CN1)C(=O)Nc1ccc2c(c1)OCCO2
obs-value: -65.5

###

- experimental-target: human ether-à-go-go-related gene (hERG) potassium channel (human);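 also: peak tail current of the secondary pulse compared with the same well before compound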
- procedure-details: primary screen, population patch clamp on CHO cells stably expressing hERG; higher = less effect of the substance
The campaign covered roughly 310,000 compounds. About 14,000 (4.5%) showed an effect of 50% or more. The effect is printed as a negative number. What follows is part of a selection rich in strong results, with near analogues and random picks from the rest.
parameter-measured: hERG current change (%, negative = inhibition) at 10uM (%)

compound: CCOC(=O)c1[nH]c2ccc(Br)cc2c1NC(=O)CCN1CCCC(C)(C)C1
obs-value: -75.7
//
compound: CCOC(=O)c1[nH]c2ccc(OC)cc2c1NC(=O)CCN1CCCC(C)C1 (centres unmarked)
obs-value: -36.9
//
compound: CC(C)(C)NC(=O)NC(=O)CN1CCN(Cc2ccccc2)CC1
obs-value: -1.77
//
compound: O=C(NC1CCN(Cc2ccccc2Cl)CC1)c1ccccc1
obs-value: -65.2
//
compound: CC12COC3(C(=O)Nc4ccc(F)cc4)CC1CCC32C (centres unmarked)
obs-value: -18
//
compound: Cc1nnc2ccc(-c3cccc(NS(=O)(=O)c4cc(F)ccc4F)c3)nn12
obs-value: -0.0273
//
compound: COc1ccc(OC)c(NC(=O)c2cc3ccccc3cc2OC)c1
obs-value: 2.44
//
compound: C=CC(=O)N1c2ccccc2Sc2ccc(NC(=O)OCC)cc21
obs-value: 0.408
//
compound: O=C(c1ccc2c(c1)OCO2)N(c1ccc(Cl)cc1)C1C=CS(=O)(=O)C1 (centres unmarked)
obs-value: -16.8
//
compound: CCOC(=O)c1[nH]c2ccc(Br)cc2c1NC(=O)CCN1CCOCC1
obs-value: 2.43
//
compound: CCOC(=O)c1[nH]c2ccc(Br)cc2c1NC(=O)CCN1CCC(C)CC1
obs-value: -69.1
//
compound: CSCCC(NC(=O)c1ccccc1Cl)C(=O)NC1CCN(Cc2ccccc2)CC1 (centres unmarked)
obs-value: -50.1
//
compound: C[C@H](CCC(=O)O)[C@H]1CC[C@H]2[C@@H]3[C@H](O)C[C@@H]4C[C@H](O)CC[C@]4(C)[C@H]3CC[C@]12C
obs-value: 13.8
//
compound: O=C(NC1CCN(C(=O)Nc2cccc(Cl)c2)CC1)c1ccccc1
obs-value: 1.02
//
compound: CCN(C(=O)Nc1ccccc1)c1ccccc1
obs-value: 4.25
//
compound: Cc1ccc(-n2nnnc2SCC(=O)c2c(N)n(C3CC3)c(=O)[nH]c2=O)cc1C
obs-value: -10.6
//
compound: O=C(NC1CCN(Cc2ccc(Cl)cc2Cl)CC1)c1ccccc1
obs-value: -53.9
//
compound: CCOC(=O)c1[nH]c2ccc(Br)cc2c1NC(=O)CCN1CCCC(C)C1 (centres unmarked)
obs-value: -73.1
//
compound: Cc1ccc(CSc2ncnc3ccccc23)cc1
obs-value: 11.3
//
compound: CCOC(=O)c1[nH]c2ccc(Br)cc2c1NC(=O)CCN1CCN(C(=O)OCC)CC1
obs-value: -44

###

- experimental-target: human ether-à-go-go-related gene (hERG) potassium channel (human, UniProt Q12809);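 also: peak tail current of the secondary pulse compared with the same well before compound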
- Sequence (Q12809 whole entry, looked up): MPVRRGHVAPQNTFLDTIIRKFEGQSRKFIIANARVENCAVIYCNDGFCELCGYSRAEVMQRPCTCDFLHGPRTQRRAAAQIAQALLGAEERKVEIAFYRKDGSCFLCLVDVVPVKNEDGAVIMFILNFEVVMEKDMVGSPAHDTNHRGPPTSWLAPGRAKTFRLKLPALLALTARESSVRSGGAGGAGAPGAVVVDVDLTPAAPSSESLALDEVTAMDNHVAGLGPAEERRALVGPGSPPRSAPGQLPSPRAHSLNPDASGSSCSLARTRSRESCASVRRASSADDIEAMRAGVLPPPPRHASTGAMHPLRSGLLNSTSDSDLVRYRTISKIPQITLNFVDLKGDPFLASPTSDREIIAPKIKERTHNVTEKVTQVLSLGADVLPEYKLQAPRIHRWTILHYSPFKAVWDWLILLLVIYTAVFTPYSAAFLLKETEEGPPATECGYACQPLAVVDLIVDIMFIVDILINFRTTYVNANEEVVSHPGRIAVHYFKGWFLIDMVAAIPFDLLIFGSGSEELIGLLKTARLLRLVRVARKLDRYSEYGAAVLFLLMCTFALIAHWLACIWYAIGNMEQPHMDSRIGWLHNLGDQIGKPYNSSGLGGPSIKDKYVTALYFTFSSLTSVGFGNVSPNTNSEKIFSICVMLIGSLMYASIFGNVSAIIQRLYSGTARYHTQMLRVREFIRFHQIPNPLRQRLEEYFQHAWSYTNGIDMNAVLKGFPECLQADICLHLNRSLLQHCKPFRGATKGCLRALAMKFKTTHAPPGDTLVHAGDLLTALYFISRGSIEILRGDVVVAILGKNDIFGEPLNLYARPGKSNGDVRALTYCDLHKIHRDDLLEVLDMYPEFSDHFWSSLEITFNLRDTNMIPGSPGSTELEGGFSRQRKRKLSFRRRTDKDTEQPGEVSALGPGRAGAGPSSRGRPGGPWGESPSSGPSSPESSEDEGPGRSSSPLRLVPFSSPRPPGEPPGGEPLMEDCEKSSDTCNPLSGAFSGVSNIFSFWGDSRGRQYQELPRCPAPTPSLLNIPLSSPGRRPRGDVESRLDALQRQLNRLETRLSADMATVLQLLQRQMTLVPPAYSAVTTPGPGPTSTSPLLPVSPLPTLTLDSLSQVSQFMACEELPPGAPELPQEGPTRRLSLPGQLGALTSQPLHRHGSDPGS
- procedure-details: primary screen, population patch clamp on CHO cells stably expressing hERG; higher = less effect of the substance
In all, about 310,000 compounds went through this assay and about 14,000 (4.5%) showed an effect of 50% or more. The effect is printed as a negative number. The entries come from a sample that favours strong results as a whole.
Listed below: hERG current change (%, negative = inhibition) at 10uM values for each entry.
parameter-measured: hERG current change (%, negative = inhibition) at 10uM (%)

compound: COc1ccc(OCC(=O)Nc2c(C(=O)N3CCN(C)CC3)oc3ccccc23)cc1
obs-value: -42
--
compound: COc1ccc(OCC(=O)Nc2ccccc2C(=O)N2CCCC2)cc1
obs-value: -7.38
--
compound: COc1nc(OC)nc(N2CCC(NC(=O)C(Cc3ccc(C(C)C)cc3)NC(C)=O)CC2)n1 (stereo not shown)
obs-value: 5.87
--
compound: N#Cc1ccccc1OCC(=O)Nc1c(C(=O)C2CC2)oc2ccccc12
obs-value: 2.52
--
compound: Cc1ccc(C(=O)COC(=O)CNC(=O)C(c2ccccc2)c2ccccc2)cc1[N+](=O)[O-]
obs-value: 4.33
--
compound: Cc1c(NC(=O)C(C)Sc2ccccc2)c(=O)n(-c2ccccc2)n1C (stereo not shown)
obs-value: -1.92
--
compound: CCOC(=O)C1CCCCN1Cc1cccc(C(F)(F)F)c1 (stereo not shown)
obs-value: 6.43
--
compound: COc1ccc(NC(=O)C2CCC(CNS(=O)(=O)c3csc(C(N)=O)c3)CC2)cc1OC (stereo not shown)
obs-value: 15.3
--
compound: COc1ccccc1CCN1CCCC(CN(C)C(=O)CCC(=O)N(C)C)C1 (stereo not shown)
obs-value: 9.14
--
compound: CSCCC(=O)N(C)CC1CCN(CCc2cccc(C(F)(F)F)c2)CC1
obs-value: -64.3
--
compound: CCCCn1c2ccc(C)cc2c2nnc(SCCN3CCCCC3)nc21
obs-value: -74.3
--
compound: Cc1cc(C)c(S(=O)(=O)N2CCN(C(=O)C3COc4ccccc4O3)CC2)c(C)c1 (stereo not shown)
obs-value: -17
--
compound: Cc1cc(NC(=O)CN2CCCCC2)no1.O=C(O)C(=O)O
obs-value: 18.8
--
compound: COc1ccc(N2CCN(C(=O)c3oc4ccccc4c3NC(=O)CCc3cc(OC)no3)CC2)cc1
obs-value: -10.4
--
compound: COc1ccc(-n2nc(C(=O)NCC(=O)N3CCN(c4ccccc4OC)CC3)c3ccccc3c2=O)cc1OC
obs-value: -34.5
--
compound: CC(=O)NCCC(=O)N(C)CC1CCN(CCc2cccc(C(F)(F)F)c2)CC1
obs-value: 2.52
--
compound: O=C(CSc1cccc[n+]1[O-])Nc1ccc2c(c1)OCO2
obs-value: 6.96
--
compound: Cc1nc2cc(C)c(C)cc2s1
obs-value: 15.7
--
compound: CN1CCN(C(=O)c2ccc3c(c2)N(Cc2cccc(Cl)c2)C(=O)c2ccccc2S3(=O)=O)CC1
obs-value: 10.8

###

A collection of compounds and their measured hERG current change (%, negative = inhibition) at 10uM
- experimental-target: human ether-à-go-go-related gene (hERG) potassium channel (human, UniProt Q12809);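 also: peak tail current of the secondary pulse compared with the same well before compound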
- procedure-details: primary screen, population patch clamp on CHO cells stably expressing hERG; higher = less effect of the substance
- Protocol: Briefly, Chinese hamster ovary (CHO) cells stably expressing the hERG channel were dislodged from tissue culture flasks and dispensed into PPC plates. […] During the recording, background leak currents were estimated by a 100 ms step to -80 mV from an initial holding potential of -70 mV and subtracted from the subsequent current measurement. The campaign was conducted in two phases using slight differences in recording protocol. […]
The whole screen tested about 310,000 compounds, of which about 14,000 (4.5%) showed an effect of 50% or more. The effect is printed as a negative number. What follows is part of a selection rich in strong results, with near analogues and random picks from the rest.
parameter-measured: hERG current change (%, negative = inhibition) at 10uM (%)

compound: COc1cccc(C(c2c(O)nc(SC)n(C)c2=O)c2c(O)nc(SC)n(C)c2=O)c1
result-unit: %
obs-value: 0.717

compound: COc1ccc(CNC(=O)CC2C(=O)NCCN2C2Cc3ccccc3C2)cc1 (centres unmarked)
result-unit: %
obs-value: -28.5

compound: CN(C)CCOc1ccccc1C(C)(C)C.O=C(O)C(=O)O
result-unit: %
obs-value: 5.47

compound: CCOC(=O)CC(NS(=O)(=O)c1ccc2[nH]cc(C(=O)O)c(=O)c2c1)c1ccc(OCC)c(OC)c1 (centres unmarked)
result-unit: %
obs-value: -1.02

compound: O=C(O)COc1ccccc1Cc1ccccc1
result-unit: %
obs-value: 5.22
